Listing of recorded log10 of Tot. act. by entry.
- METHOD_NOTES: Rate of hydrolysis in homogenized stomach contents
- DETAILS: 1.0 mM prodrug, 37 C, release of free steroid by HPLC
REPORTED_PROPERTY: log10 of Tot. act. (log10 of the value in µmol/min)

INSERT INTO results (compound, reported_property, reported_measurement) VALUES
  ('CC1CC2C3CCC4=CC(=O)C=CC4(C)C3(F)C(O)CC2(C)C1(O)C(=O)COC1OC(CO)C(O)C(O)C1O (stereo not drawn) [Compound 1]', 'log10 of Tot. act.', -0.92),
  ('CC12C=CC(=O)C=C1CCC1C2C(O)CC2(C)C1CCC2(O)C(=O)COC1OC(CO)C(OC2OC(CO)C(O)C(O)C2O)C(O)C1O (stereo not drawn)', 'log10 of Tot. act.', -2.00),
  ('CC12CCC(=O)C=C1CCC1C2C(O)CC2(C)C1CCC2(O)C(=O)COC1OC(CO)C(O)C(O)C1O (stereo not drawn) [Compound 5]', 'log10 of Tot. act.', -1.05),
  ('CC12CCC(=O)C=C1CCC1C3CCC(O)(C(=O)COC4OC(CO)C(O)C(O)C4O)C3(C)CC(O)C12F (stereo not drawn) [Compound 12]', 'log10 of Tot. act.', -2.00),
  ('CC12C=CC(=O)C=C1CCC1C2C(O)CC2(C)C1CCC2(O)C(=O)COC1OC(CO)C(O)C(O)C1O (stereo not drawn) [Compound 2]', 'log10 of Tot. act.', -0.92),
  ('CC12CCC(=O)C=C1CCC1C2C(O)CC2(C)C1CCC2(O)C(=O)COC1OC(CO)C(O)C(O)C1O (stereo not drawn) [Compound 11]', 'log10 of Tot. act.', -1.70),
  ('CC12CCC(=O)C=C1CCC1C3CCC(O)(C(=O)COC4OC(CO)C(O)C(O)C4O)C3(C)CC(O)C12F (stereo not drawn) [Compound 7]', 'log10 of Tot. act.', -0.85),
  ('CC12C=CC(=O)C=C1CCC1C2C(O)CC2(C)C1CCC2(O)C(=O)COC1OC(CO)C(O)C(O)C1O (stereo not drawn) [Compound 10]', 'log10 of Tot. act.', -0.72),
  ('CC1CC2C3CCC4=CC(=O)C=CC4(C)C3(F)C(O)CC2(C)C1(O)C(=O)COC1OC(CO)C(O)C(O)C1O (stereo not drawn) [Compound 9]', 'log10 of Tot. act.', -2.40);

* * *

The reader will find reported Tot. act. values listed item by item below.
- METHOD_NOTES: Rate of hydrolysis in homogenized distal small intestine contents
- DETAILS: DSI contents; 1.0 mM prodrug, 37 C; release of free steroid by HPLC
REPORTED_PROPERTY: Tot. act.

INSERT INTO measurements (compound, reported_property, reported_measurement) VALUES
  ('CC12C=CC(=O)C=C1CCC1C2C(O)CC2(C)C1CCC2(O)C(=O)COC1OC(CO)C(O)C(O)C1O (stereo not drawn) [Compound 10]', 'Tot. act.', '1.72 µmol/min'),
  ('CC12CCC(=O)C=C1CCC1C2C(O)CC2(C)C1CCC2(O)C(=O)COC1OC(CO)C(O)C(O)C1O (stereo not drawn) [Compound 5]', 'Tot. act.', '0.70 µmol/min'),
  ('CC1CC2C3CCC4=CC(=O)C=CC4(C)C3(F)C(O)CC2(C)C1(O)C(=O)COC1OC(CO)C(O)C(O)C1O (stereo not drawn) [Compound 9]', 'Tot. act.', '0.41 µmol/min'),
  ('CC12C=CC(=O)C=C1CCC1C2C(O)CC2(C)C1CCC2(O)C(=O)COC1OC(CO)C(O)C(O)C1O (stereo not drawn) [Compound 2]', 'Tot. act.', '1.0 µmol/min'),
  ('CC1CC2C3CCC4=CC(=O)C=CC4(C)C3(F)C(O)CC2(C)C1(O)C(=O)COC1OC(CO)C(O)C(O)C1O (stereo not drawn) [Compound 1]', 'Tot. act.', '0.34 µmol/min'),
  ('CC12CCC(=O)C=C1CCC1C3CCC(O)(C(=O)COC4OC(CO)C(O)C(O)C4O)C3(C)CC(O)C12F (stereo not drawn) [Compound 12]', 'Tot. act.', '0.80 µmol/min'),
  ('CC12C=CC(=O)C=C1CCC1C2C(O)CC2(C)C1CCC2(O)C(=O)COC1OC(CO)C(OC2OC(CO)C(O)C(O)C2O)C(O)C1O (stereo not drawn) [Compound 13]', 'Tot. act.', '0.64 µmol/min'),
  ('CC12CCC(=O)C=C1CCC1C3CCC(O)(C(=O)COC4OC(CO)C(O)C(O)C4O)C3(C)CC(O)C12F (stereo not drawn) [Compound 7]', 'Tot. act.', '0.43 µmol/min'),
  ('CC12CCC(=O)C=C1CCC1C2C(O)CC2(C)C1CCC2(O)C(=O)COC1OC(CO)C(O)C(O)C1O (stereo not drawn) [Compound 11]', 'Tot. act.', '1.6 µmol/min');
